- tgt: recombinant human NF-kappaB-inducing kinase (NIK/MAP3K14) (Homo sapiens (Human))
- Sequence (Q99558 whole entry): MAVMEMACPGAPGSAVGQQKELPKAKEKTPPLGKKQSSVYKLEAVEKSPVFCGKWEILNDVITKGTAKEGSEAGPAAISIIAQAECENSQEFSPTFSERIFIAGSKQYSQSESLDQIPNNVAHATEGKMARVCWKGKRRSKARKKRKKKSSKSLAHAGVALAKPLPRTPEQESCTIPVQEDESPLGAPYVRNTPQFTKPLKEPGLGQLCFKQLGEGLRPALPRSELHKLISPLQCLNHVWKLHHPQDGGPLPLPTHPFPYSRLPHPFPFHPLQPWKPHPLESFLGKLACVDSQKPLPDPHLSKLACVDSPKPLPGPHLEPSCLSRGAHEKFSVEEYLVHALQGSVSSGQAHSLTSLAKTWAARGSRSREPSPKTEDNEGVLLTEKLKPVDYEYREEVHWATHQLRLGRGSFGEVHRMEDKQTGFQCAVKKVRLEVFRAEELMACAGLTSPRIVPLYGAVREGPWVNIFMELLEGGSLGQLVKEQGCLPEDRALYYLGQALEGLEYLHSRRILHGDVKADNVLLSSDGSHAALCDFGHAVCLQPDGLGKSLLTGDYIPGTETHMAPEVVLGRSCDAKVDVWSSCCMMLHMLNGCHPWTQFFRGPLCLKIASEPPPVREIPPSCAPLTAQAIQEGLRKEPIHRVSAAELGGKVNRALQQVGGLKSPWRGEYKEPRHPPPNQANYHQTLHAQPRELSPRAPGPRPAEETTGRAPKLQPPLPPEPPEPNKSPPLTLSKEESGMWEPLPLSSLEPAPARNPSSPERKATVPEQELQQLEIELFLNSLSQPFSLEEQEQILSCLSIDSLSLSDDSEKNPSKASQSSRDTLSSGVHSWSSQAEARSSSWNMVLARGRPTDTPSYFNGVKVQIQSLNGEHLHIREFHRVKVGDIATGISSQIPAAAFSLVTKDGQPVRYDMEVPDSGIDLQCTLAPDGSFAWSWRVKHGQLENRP
- methodSummary: Inhibition of auto-phosphorylation of recombinant human NIK/MAP3K14 (AlphaScreen)
- Format: biochemical
- measurementSetup: NIK auto-phosphorylation, 5 μM ATP, 1 nM NIK, 2 h at 25° C.; average of values
Below, each entry is listed with its recorded IC50.
observedProperty: IC50

INSERT INTO assay_data (chemsmiles, observedproperty, observedmeasurement) VALUES
  ('CN1CC[C@@](O)(C#Cc2cccc(-c3ccc4nc(O)nc(N)c4n3)c2)C1=O', 'IC50', '2.2 nM'),
  ('Cc1c(C#C[C@]2(O)CCN(C)C2=O)cccc1-c1ncc2ccnc(N)c2n1', 'IC50', '68 nM'),
  ('Cc1nc(N)c2nc(-c3cccc(C#C[C@]4(O)CCN(C)C4=O)c3)nc(C)c2n1', 'IC50', '1.1 nM'),
  ('CN1CC[C@@](O)(C#Cc2cccc(-c3nc(N4CCOCC4)c4ccnc(N)c4n3)c2)C1=O', 'IC50', '1.3 nM'),
  ('CN1CC[C@@](O)(C#Cc2cccc(-c3nc4c(N)nccc4c(=O)[nH]3)c2)C1=O', 'IC50', '≤ 0.5 nM'),
  ('CN1CC[C@@](O)(C#Cc2cccc(-c3ccc4ncnc(N5CCCCC5)c4n3)c2)C1=O', 'IC50', '6.1 nM'),
  ('[2H]c1nc(N)c2nc(-c3cccc(C#C[C@]4(O)CCN(C)C4=O)c3)cc(C3CCNCC3)c2n1', 'IC50', '44 nM'),
  ('CN1CC[C@@](O)(C#Cc2cccc(-c3cc(Br)c4ncnc(N)c4n3)c2)C1=O', 'IC50', '0.4 nM'),
  ('CN1CC[C@](O)(C#Cc2cccc(-c3ncc4ccnc(N)c4n3)c2)C1=O', 'IC50', '160 nM'),
  ('Cc1cnc(N)c2nc(-c3cccc(C#C[C@]4(O)CCN(C)C4=O)c3)ncc12', 'IC50', '≤ 0.5 nM'),
  ('Cc1cc(-c2cccc(C#C[C@]3(O)CCN(C)C3=O)c2)cc2c(N)ncnc12', 'IC50', '≤ 0.5 nM'),
  ('CN1CC[C@@](O)(C#Cc2cccc(-c3ncc4c(-c5cnn(C)c5)cnc(N)c4n3)c2)C1=O', 'IC50', '≤ 0.5 nM'),
  ('CN1CC[C@@](O)(C#Cc2cccc(-c3cc(C4CCC4)c4ncnc(N)c4n3)c2)C1=O', 'IC50', '≤ 0.5 nM');
